Property: log10 of Kd; scope: individual binders
target: biotinylated C3b (UniProt P01024); experiment: SPR, Biacore 3000; biotinylated C3b on streptavidin chip, peptide injected; 1:1 fit
Bridge positions count the residues as written; N and C are the ends. Square brackets hold non-standard residues; d marks the D form. Trp(1-Me) = Cn1cc(C[C@H](N)C(=O)O)c2ccccc21; NMeI = CC[C@H](C)[C@H](NC)C(=O)O; Nle = CCCC[C@H](N)C(=O)O; Sar = CNCC(=O)O
Heads up, the numbers here are log10 of Kd in nM units.

# example entries with known answers
* Ac-ICV[Trp(1-Me)]QDW[Sar]AHRC[Nle]-NH2 (disulfide 2-12; SMILES CCCC[C@H](NC(=O)[C@@H]1CSSC[C@H](NC(=O)[C@@H](NC(C)=O)[C@@H](C)CC)C(=O)N[C@@H](C(C)C)C(=O)N[C@@H](Cc2cn(C)c3ccccc23)C(=O)N[C@@H](CCC(N)=O)C(=O)N[C@@H](CC(=O)O)C(=O)N[C@@H](Cc2c[nH]c3ccccc23)C(=O)N(C)CC(=O)N[C@@H](C)C(=O)N[C@@H](Cc2c[nH]cn2)C(=O)N[C@@H](CCCNC(=N)N)C(=O)N1)C(N)=O) [Ac-Ic[CV(1-MeW)QDW(N-MeG)AHRC](Nle)-NH2] | 0.64
* Ac-ICV[Trp(1-Me)]QDW[Sar]AHRC[NMeI]-NH2 (disulfide 2-12; SMILES CC[C@H](C)[C@H](NC(C)=O)C(=O)N[C@H]1CSSC[C@@H](C(=O)N(C)[C@H](C(N)=O)[C@@H](C)CC)NC(=O)[C@H](CCCNC(=N)N)NC(=O)[C@H](Cc2c[nH]cn2)NC(=O)[C@H](C)NC(=O)CN(C)C(=O)[C@H](Cc2c[nH]c3ccccc23)NC(=O)[C@H](CC(=O)O)NC(=O)[C@H](CCC(N)=O)NC(=O)[C@H](Cc2cn(C)c3ccccc23)NC(=O)[C@H](C(C)C)NC1=O, Sar^8, (NMe)Ile^13; also called peptide 21; analog 21) [Ac-Ic[CV(1-MeW)QDW(N-MeG)AHRC](N-MeI)-NH2] | 0.36
* Ac-ICV[Trp(1-Me)]QDW[Sar]AHRCI-NH2 (disulfide 2-12; SMILES CC[C@H](C)[C@H](NC(=O)[C@@H]1CSSC[C@H](NC(=O)[C@@H](NC(C)=O)[C@@H](C)CC)C(=O)N[C@@H](C(C)C)C(=O)N[C@@H](Cc2cn(C)c3ccccc23)C(=O)N[C@@H](CCC(N)=O)C(=O)N[C@@H](CC(=O)O)C(=O)N[C@@H](Cc2c[nH]c3ccccc23)C(=O)N(C)CC(=O)N[C@@H](C)C(=O)N[C@@H](Cc2c[nH]cn2)C(=O)N[C@@H](CCCNC(=N)N)C(=O)N1)C(N)=O, Sar^8, Ile^13; also called peptide 17; Ac-Ic[CV(1-MeW)QDW(N-MeG)AHRC]I-NH2) [Ac-Ile-c[Cys-Val-Trp(Me)-Gln-Asp-Trp-Sar-Ala-His-Arg-Cys]-Ile-NH2] | 0.64
* ICVWQDWGAHRCIK (not fully specified; N-terminal acetyl; 1-methyl-Trp at 4; N-methyl-Gly (Sar) at 8; disulfide Cys2-Cys12 (cyclic); two mini-PEG-3 spacers between Ile13 and a C-terminal Lys-NH2; albumin-binding small molecule (ABM) on the Lys side chain) [Peptide 17-ABM] | 0.67
* Peptide 17-ABP (propiolic acid on the N-terminus, joined by triazole to the azido-Lys of the peptide 17 chain; N-terminal acetyl; 1-methyl-Trp at 4; N-methyl-Gly (Sar) at 8; disulfide Cys2-Cys12 (cyclic); two mini-PEG-3 spacers between Ile13 and a C-terminal Lys-NH2; 2-azidoacetyl on the Lys side chain, joined by azide-alkyne cycloaddition (triazole) to the ABP) peptide: ICVWQDWGAHRCIK RLIEDICLPRWGCLWEDD | 1.51

Field: next binder
stdin: # get_value(readout='log10 of Kd', item= Ac-ICV[Trp(1-Me)]QDW[Sar]AHRCL-NH2 (disulfide 2-12; SMILES CC[C@H](C)[C@H](NC(C)=O)C(=O)N[C@H]1CSSC[C@@H](C(=O)N[C@@H](CC(C)C)C(N)=O)NC(=O)[C@H](CCCNC(=N)N)NC(=O)[C@H](Cc2c[nH]cn2)NC(=O)[C@H](C)NC(=O)CN(C)C(=O)[C@H](Cc2c[nH]c3ccccc23)NC(=O)[C@H](CC(=O)O)NC(=O)[C@H](CCC(N)=O)NC(=O)[C@H](Cc2cn(C)c3ccccc23)NC(=O)[C@H](C(C)C)NC1=O) [Ac-Ic[CV(1-MeW)QDW(N-MeG)AHRC]L-NH2] )
stdout: 0.66
